experiment: Apparent permeability of compound at 10 uM at pH 7.4 after 12 hrs by PAMPA
Assay type: ADME
# Papp at 12 h, 10 µM per record follows
Number only, in ×10⁻⁶ cm/s; omit the unit.

Record excerpt, results attached:
compound	unit of measure	Papp at 12 h, 10 µM
CCOS(=O)(=O)/C=C/c1ccc(O[C@H]2CNC[C@H]2Oc2ccc(/C=C/S(=O)(=O)OCC)cc2)cc1	×10⁻⁶ cm/s	0.87
CC(C)NCC(O)COc1cccc2ccccc12 (centres undefined) [PROPRANOLOL]	×10⁻⁶ cm/s	8.71
CCOS(=O)(=O)/C=C/c1ccc(O[C@@H]2CNC[C@H]2Oc2ccc(/C=C/S(=O)(=O)OCC)cc2)cc1	×10⁻⁶ cm/s	0.93

From here, focus on the item given below.
Reported Papp at 12 h, 10 µM for `CCOS(=O)(=O)/C=C/c1ccc(O[C@@H]2CN(C(=O)C(=O)Nc3ccccc3)C[C@H]2Oc2ccc(/C=C/S(=O)(=O)OCC)cc2)cc1` was 1.27

* * *

system name: Tyrosine-protein phosphatase non-receptor type 1 (Homo sapiens)
Simple rule here: IC50 less than 4 µM is yes (1), otherwise no (0).

For orientation, consider the following solved cases.
structure smiles string	class name
CCOS(=O)(=O)/C=C/c1ccc(O[C@@H]2CN(C(=O)C(=O)Nc3ccc(Oc4ccccc4)cc3)C[C@H]2Oc2ccc(/C=C/S(=O)(=O)OCC)cc2)cc1	yes (1)
CCOS(=O)(=O)/C=C/c1ccc(O[C@@H]2CN(C(=O)Nc3ccccc3)C[C@H]2Oc2ccc(/C=C/S(=O)(=O)OCC)cc2)cc1	yes (1)

Asked: Say whether its IC50 is strictly beneath 4 µM. Entry: `CCOS(=O)(=O)/C=C/c1ccc(O[C@@H]2CN(Cc3ccc(Oc4ccccc4)cc3)C[C@H]2Oc2ccc(/C=C/S(=O)(=O)OCC)cc2)cc1`
Given back: no (0)

Asked: Say whether its IC50 is strictly beneath 4 µM. Entry: `CCOS(=O)(=O)/C=C/c1ccc(O[C@@H]2CN(Cc3ccc(Oc4ccc(C(C)C)cc4)cc3)C[C@H]2Oc2ccc(/C=C/S(=O)(=O)OCC)cc2)cc1`
Given back: no (0)

Asked: Say whether its IC50 is strictly beneath 4 µM. Entry: `CCOS(=O)(=O)/C=C/c1ccc(O[C@@H]2CN(C(=O)c3ccc(Oc4ccccc4)cc3)C[C@H]2Oc2ccc(/C=C/S(=O)(=O)OCC)cc2)cc1`
Given back: yes (1)

Asked: Say whether its IC50 is strictly beneath 4 µM. Entry: `CCOS(=O)(=O)/C=C/c1ccc(O[C@@H]2CN(Cc3ccccc3)C[C@H]2Oc2ccc(/C=C/S(=O)(=O)OCC)cc2)cc1`
Given back: no (0)

* * *

system name: Tyrosine-protein phosphatase non-receptor type 1 (Homo sapiens)
Sequence (P18031 whole entry): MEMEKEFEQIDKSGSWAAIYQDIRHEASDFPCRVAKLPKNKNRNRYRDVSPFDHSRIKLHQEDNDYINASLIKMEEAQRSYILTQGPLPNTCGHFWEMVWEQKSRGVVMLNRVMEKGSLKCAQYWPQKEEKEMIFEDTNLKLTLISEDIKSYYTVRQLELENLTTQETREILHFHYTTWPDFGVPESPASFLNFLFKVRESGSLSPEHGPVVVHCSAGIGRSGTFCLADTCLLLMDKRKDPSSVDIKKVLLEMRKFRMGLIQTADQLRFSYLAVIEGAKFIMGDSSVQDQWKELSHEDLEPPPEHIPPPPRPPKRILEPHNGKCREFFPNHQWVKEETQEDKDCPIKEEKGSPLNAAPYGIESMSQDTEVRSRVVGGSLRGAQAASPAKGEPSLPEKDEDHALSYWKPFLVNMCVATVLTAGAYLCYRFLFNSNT
# pIC50 per record follows
// pIC50: -log10(molar conc.)

Record excerpt, results attached:
structure smiles string	meas value
CCCCCCc1ccc(NC(=O)C(=O)N2C[C@@H](Oc3ccc(/C=C/S(=O)(=O)OCC)cc3)[C@H](Oc3ccc(CCS(=O)(=O)OCC)cc3)C2)cc1	6.21
CCOS(=O)(=O)/C=C/c1ccc(O[C@@H]2CN(C(=O)C(=O)Nc3ccc(Oc4ccc(Cl)cc4)cc3)C[C@@H]2Oc2ccc(CCS(=O)(=O)OCC)cc2)cc1	5.84

From here, focus on the item given below.
Reported pIC50 for `CCOS(=O)(=O)/C=C/c1ccc(O[C@@H]2CN(C(=O)Nc3ccc(Oc4ccc(C(C)C)cc4)cc3)C[C@H]2Oc2ccc(/C=C/S(=O)(=O)OCC)cc2)cc1` was 5.86
